- measuredTarget: UniProtKB P14842
- Sequence (P14842 whole entry): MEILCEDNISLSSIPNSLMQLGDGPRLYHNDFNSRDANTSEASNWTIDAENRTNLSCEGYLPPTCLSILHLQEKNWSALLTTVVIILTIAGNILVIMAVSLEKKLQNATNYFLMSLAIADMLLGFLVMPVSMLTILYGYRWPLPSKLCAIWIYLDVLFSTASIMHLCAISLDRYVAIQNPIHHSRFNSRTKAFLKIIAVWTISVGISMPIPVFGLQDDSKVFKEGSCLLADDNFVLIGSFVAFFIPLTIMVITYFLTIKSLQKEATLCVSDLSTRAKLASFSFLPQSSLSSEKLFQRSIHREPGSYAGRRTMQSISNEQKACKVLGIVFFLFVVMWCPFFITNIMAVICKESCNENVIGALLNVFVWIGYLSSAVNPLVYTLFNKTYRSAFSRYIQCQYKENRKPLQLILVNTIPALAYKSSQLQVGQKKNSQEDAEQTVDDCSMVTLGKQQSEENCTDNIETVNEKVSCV
- method: Ability to displace [3H]ketanserin bound to 5-hydroxytryptamine 2A receptor in rat pre-frontal cortex
- Type: tissue-based
propertyName: pKi
pKi field: float, defined as -log10 of concentration (mol/L).

Request: Using the record for CN1CCN(c2nc3ccccc3c3c2CC2CCC3C2)CC1 (configuration not stated) , report its pKi.
Response: 5.43

Request: Similarly, "CN1CCN(c2nc3ccccc3c3c2CCCC3)CC1" ?
Response: 5.52

----------
- measuredTarget: Serotonin 3 (5-HT3) receptor (Rattus norvegicus, UniProt P35563+Q9JJ16)
- Sequence (P35563 whole entry): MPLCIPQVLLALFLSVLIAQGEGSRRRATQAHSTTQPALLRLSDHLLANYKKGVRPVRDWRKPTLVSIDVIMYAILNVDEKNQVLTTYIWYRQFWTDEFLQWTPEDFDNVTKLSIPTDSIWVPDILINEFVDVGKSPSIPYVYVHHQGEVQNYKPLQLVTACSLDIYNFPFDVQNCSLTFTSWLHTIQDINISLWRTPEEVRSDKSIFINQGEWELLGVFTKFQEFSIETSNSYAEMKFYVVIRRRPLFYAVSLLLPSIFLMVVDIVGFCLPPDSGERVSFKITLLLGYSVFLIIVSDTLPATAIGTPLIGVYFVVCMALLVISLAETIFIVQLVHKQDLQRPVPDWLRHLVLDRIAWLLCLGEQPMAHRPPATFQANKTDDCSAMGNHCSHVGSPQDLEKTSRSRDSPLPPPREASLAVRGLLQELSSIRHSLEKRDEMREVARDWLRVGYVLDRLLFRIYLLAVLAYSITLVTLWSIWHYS
- Sequence (Q9JJ16 whole entry): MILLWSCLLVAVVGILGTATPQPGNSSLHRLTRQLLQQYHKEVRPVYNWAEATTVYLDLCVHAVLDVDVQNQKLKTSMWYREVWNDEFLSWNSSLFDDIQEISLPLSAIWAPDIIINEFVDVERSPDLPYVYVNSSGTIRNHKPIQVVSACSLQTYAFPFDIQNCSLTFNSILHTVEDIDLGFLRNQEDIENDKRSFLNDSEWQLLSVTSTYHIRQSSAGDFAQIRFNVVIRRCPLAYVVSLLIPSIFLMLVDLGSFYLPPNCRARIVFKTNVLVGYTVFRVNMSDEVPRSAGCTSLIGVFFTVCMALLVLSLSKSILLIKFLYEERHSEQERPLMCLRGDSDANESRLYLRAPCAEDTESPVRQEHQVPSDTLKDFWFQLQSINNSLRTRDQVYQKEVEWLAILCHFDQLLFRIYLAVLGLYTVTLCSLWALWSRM
- method: Ability to displace [3H]granisetron specifically bound to 5-hydroxytryptamine 3 receptor in rat cortical membrane
- Format: cell membranes
Give pKi for every item shown.
pKi field: float, defined as -log10 of concentration (mol/L).

Request: Using the record for "CN1CCN(c2nc3c(c4c2CCCC4)CCCC3)CC1" , report its pKi.
Response: 6.96

Request: Similarly, "CN1CCN(c2ccc3ccccc3n2)CC1" ?
Response: 8.52

Request: Similarly, "CN1CCCN(c2nc3ccccc3c3c2CCCC3)CC1" ?
Response: 8.32

Request: Similarly, O=[N+]([O-])c1ccc2nc(N3CCNCC3)ccc2c1 [6-NITROQUIPAZINE] ?
Response: 7.24

Request: Similarly, "CN1CCN(c2nc3ccccc3c3ccccc23)CC1" ?
Response: 8.72

Request: Similarly, "c1ccc2c3c(c(N4CCNCC4)nc2c1)CCCC3" ?
Response: 8.77

Request: Similarly, "CN1CCN(c2ccc3c(n2)-c2ccccc2C3)CC1" ?
Response: 7.85

Request: Similarly, "CN1CCN(c2ccc3c(n2)-c2ccccc2CC3)CC1" ?
Response: 6.70

Request: Similarly, "CN1CCN(c2nc3ccccc3c3c2CCCC3)CC1" ?
Response: 9.64

Request: Similarly, "CN1CCN(c2ccc3ccc4ccccc4c3n2)CC1" ?
Response: 6.70

Request: Similarly, "CCN1CCN(c2nc3ccccc3c3c2CCCC3)CC1" ?
Response: 8.72

Request: Similarly, CN1CCN(c2nc3ccccc3c3c2CC2CCC3C2)CC1 (stereo not given) ?
Response: 9.08

Request: Similarly, CN1CCN(c2ccc3c(n2)C2CCCCC2CC3)CC1 (stereo not given) ?
Response: 6.18

Request: Similarly, "C[N+]1(C)CCN(c2nc3ccccc3c3c2CCCC3)CC1" ?
Response: 7.89

Request: Similarly, CCCN(CCC)C1CCc2cccc(O)c2C1 (stereo not given) [8-OH-DPAT] ?
Response: 8.92

Request: Similarly, "c1ccc(CN2CCN(c3nc4ccccc4c4c3CCCC4)CC2)cc1" ?
Response: 7.96

Request: Similarly, "CN1CCN(c2ccc3c(n2)CCc2ccccc2-3)CC1" ?
Response: 6.08

----------
- measuredTarget: Sodium-dependent serotonin transporter (Rattus norvegicus)
- Sequence (P31652 whole entry): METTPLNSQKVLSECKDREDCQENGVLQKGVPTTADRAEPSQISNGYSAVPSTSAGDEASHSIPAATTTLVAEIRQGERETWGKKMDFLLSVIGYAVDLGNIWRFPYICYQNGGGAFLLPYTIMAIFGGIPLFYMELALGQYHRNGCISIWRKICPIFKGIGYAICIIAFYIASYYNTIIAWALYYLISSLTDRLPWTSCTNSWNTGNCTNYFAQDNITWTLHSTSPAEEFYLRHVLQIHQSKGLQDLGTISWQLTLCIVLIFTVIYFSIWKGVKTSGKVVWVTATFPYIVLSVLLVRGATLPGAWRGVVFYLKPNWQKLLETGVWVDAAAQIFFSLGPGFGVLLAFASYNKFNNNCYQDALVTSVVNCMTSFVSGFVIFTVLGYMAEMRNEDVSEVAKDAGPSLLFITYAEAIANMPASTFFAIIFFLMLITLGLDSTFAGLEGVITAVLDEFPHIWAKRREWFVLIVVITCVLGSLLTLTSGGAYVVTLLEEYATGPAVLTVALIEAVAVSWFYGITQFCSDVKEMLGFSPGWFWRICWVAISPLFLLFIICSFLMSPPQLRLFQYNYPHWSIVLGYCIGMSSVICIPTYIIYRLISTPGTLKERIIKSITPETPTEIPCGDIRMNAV
propertyName: pKi
pKi field: float, defined as -log10 of concentration (mol/L).

Request: Using the record for O=[N+]([O-])c1ccc2nc(N3CCNCC3)ccc2c1 [6-NITROQUIPAZINE] , report its pKi.
Response: 9.92

Request: Similarly, CN1CCN(c2nc3ccccc3c3c2CC2CCC3C2)CC1 (centres undefined) ?
Response: 4.62

Request: Similarly, "CN1CCN(c2nc3ccccc3c3c2CCCC3)CC1" ?
Response: 4.92

Request: Similarly, "CN1CCN(c2ccc3c(n2)-c2ccccc2C3)CC1" ?
Response: 7.23

----------
- measuredTarget: Serotonin 3 (5-HT3) receptor (Rattus norvegicus, UniProt P35563+Q9JJ16)
- method: Binding affinity at 5-hydroxytryptamine 3 receptor in rat cortical membrane by [3H]graniestron displacement.
- Assay type: cell membranes
Give Ki for every item shown.
// return numeric value only (unit: nM, not printed)

Request: Using the record for "CN1CCN(c2ccc3ccccc3n2)CC1" , report its Ki.
Response: 3.02

Request: Similarly, "CN1CCN(c2nc3c(c4c2CCCC4)CCCC3)CC1" ?
Response: 110

Request: Similarly, "CN1CCN(c2nc3ccccc3c3ccccc23)CC1" ?
Response: 1.91

Request: Similarly, "CN1CCN(c2ccc3ccc4ccccc4c3n2)CC1" ?
Response: 200

Request: Similarly, "CN1CCN(c2ccc3c(n2)-c2ccccc2C3)CC1" ?
Response: 14.1

Request: Similarly, CN1CCN(c2ccc3c(n2)C2CCCCC2CC3)CC1 (stereo not given) ?
Response: 661

Request: Similarly, "CN1CCN(c2nc3ccccc3c3c2CCCC3)CC1" ?
Response: 0.229

Request: Similarly, "CN1CCN(c2ccc3c(n2)-c2ccccc2CC3)CC1" ?
Response: 200

Request: Similarly, "CN1CCN(c2ccc3c(n2)CCc2ccccc2-3)CC1" ?
Response: 832

Request: Similarly, CN1CCN(c2nc3ccccc3c3c2CC2CCC3C2)CC1 (stereo not given) ?
Response: 0.832

----------
- measuredTarget: 5-hydroxytryptamine receptor 2C (Rattus norvegicus, UniProt P08909)
- Sequence (P08909 whole entry): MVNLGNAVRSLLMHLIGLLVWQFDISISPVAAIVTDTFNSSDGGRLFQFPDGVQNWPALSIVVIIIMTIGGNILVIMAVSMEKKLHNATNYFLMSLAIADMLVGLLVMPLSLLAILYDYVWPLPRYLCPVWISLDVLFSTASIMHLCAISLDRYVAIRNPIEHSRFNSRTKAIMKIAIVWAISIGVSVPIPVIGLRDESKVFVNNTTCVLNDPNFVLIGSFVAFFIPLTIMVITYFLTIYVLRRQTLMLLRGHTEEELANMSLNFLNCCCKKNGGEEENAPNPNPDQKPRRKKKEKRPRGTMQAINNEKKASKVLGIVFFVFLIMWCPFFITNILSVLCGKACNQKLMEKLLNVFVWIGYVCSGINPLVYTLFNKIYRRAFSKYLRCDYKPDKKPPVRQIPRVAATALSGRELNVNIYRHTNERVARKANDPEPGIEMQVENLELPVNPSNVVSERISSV
propertyName: pKi
pKi field: float, defined as -log10 of concentration (mol/L).

Request: Using the record for c1ccc2nc(N3CCNCC3)ccc2c1 [QUIPAZINE] , report its pKi.
Response: 6.72

Request: Similarly, "CN1CCN(c2nc3ccccc3c3c2CCCC3)CC1" ?
Response: 5.36

----------
Below are pKi values measured for UniProtKB P28564.
Sequence (P28564 whole entry): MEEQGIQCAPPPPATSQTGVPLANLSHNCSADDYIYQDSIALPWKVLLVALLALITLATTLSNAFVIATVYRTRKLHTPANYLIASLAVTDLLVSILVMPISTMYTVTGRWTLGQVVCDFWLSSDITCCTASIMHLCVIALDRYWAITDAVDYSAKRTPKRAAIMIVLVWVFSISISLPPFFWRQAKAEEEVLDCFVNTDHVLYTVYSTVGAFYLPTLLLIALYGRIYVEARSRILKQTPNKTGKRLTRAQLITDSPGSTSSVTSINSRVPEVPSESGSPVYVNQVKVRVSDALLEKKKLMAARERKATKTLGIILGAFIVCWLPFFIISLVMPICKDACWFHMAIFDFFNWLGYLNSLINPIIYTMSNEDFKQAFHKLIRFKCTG
pKi field: float, defined as -log10 of concentration (mol/L).

Request: Using the record for "c1ccc2nc(N3CCNCC3)ccc2c1" , report its pKi.
Response: 6.51

Request: Similarly, "CN1CCN(c2ccc3c(n2)-c2ccccc2C3)CC1" ?
Response: 5.42

----------
- measuredTarget: Serotonin 3 (5-HT3) receptor (Rattus norvegicus, UniProt P35563+Q9JJ16)
- Sequence (P35563 whole entry): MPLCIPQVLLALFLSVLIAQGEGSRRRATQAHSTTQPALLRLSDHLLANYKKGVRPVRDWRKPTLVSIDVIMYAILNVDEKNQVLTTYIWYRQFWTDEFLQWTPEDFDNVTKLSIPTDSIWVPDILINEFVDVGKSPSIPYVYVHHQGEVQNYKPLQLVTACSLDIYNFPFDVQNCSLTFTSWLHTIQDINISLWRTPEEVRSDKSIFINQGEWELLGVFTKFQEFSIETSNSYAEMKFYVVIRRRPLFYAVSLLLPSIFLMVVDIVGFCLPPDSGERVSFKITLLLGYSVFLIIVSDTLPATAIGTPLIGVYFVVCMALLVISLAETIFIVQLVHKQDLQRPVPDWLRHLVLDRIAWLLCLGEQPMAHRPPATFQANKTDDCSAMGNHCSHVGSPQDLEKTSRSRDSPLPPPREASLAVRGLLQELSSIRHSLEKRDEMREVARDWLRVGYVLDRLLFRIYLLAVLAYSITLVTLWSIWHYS
- Sequence (Q9JJ16 whole entry): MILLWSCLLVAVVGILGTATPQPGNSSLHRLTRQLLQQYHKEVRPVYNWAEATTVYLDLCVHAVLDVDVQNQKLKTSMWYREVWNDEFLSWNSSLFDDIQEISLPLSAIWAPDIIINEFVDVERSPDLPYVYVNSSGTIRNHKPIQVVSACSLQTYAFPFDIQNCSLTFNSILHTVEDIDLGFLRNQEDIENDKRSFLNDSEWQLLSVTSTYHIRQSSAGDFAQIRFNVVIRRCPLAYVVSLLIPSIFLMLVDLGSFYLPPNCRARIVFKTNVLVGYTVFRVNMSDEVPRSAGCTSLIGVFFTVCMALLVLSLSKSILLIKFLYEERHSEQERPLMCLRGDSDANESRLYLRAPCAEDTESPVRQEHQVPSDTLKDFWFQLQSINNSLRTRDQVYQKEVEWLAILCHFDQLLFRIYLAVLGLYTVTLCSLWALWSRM
- method: Ability to displace [3H]granisetron specifically bound to 5-hydroxytryptamine 3 receptor in rat cortical membrane
- Format: cell membranes
propertyName: Ki

Request: Using the record for "CN1CCN(c2cccc(C34C[C@H]5C[C@@H](C3)C[C@@H](C4)C5)n2)CC1" , report its Ki.
Response: > 550 nM

Request: Similarly, "CN1CCN(c2ccc3c(n2)-c2ccccc2CCC3)CC1" ?
Response: > 550 nM

Request: Similarly, "c1ccc2c3c(c(N4CCOCC4)nc2c1)CCCC3" ?
Response: > 17000 nM
